target: Mitogen-activated protein kinase kinase kinase kinase 5 (Homo sapiens); test: Binding affinity to wild-type human partial length MAP4K5 (M1 to P297 residues) expressed in bacterial expression system by Kinomescan method
Sequence (Q9Y4K4 whole entry, the tested form may be a part): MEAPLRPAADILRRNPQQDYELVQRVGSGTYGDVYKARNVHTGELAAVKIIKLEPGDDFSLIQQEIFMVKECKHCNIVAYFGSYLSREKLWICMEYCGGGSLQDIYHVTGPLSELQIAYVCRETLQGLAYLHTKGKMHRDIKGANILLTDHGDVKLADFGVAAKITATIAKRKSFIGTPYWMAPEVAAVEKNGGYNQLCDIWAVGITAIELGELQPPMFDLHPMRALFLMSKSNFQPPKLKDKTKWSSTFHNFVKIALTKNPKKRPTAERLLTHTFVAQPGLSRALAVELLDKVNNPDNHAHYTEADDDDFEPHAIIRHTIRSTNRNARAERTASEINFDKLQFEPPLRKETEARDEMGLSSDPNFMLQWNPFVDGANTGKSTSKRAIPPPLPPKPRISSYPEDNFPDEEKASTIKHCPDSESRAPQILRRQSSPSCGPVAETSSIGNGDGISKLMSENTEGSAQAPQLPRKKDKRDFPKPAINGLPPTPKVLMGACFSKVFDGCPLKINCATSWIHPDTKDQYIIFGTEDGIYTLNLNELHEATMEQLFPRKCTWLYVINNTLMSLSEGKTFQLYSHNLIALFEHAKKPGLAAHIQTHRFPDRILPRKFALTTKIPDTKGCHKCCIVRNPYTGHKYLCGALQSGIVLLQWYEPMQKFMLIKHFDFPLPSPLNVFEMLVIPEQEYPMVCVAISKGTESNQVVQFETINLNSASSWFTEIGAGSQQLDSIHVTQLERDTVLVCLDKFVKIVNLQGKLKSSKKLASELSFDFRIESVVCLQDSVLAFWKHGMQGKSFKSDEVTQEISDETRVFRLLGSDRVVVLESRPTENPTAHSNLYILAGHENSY
assay.readout: Kd (nM)
Supply the numeric figure in nM, leaving out any unit text.

Task: Write down the reported Kd of Nc1ccc(-c2cnc3[nH]nc(C(=O)c4c(F)ccc(NS(=O)(=O)Cc5ccccc5)c4F)c3c2)cc1 , test system: Mitogen-activated protein kinase kinase kinase kinase 5 (Homo sapiens).
Output: 5.8

* * *

Give Activity for every item shown.
target: Dual specificity mitogen-activated protein kinase kinase 7 (Homo sapiens) (UniProt O14733); assay: Binding affinity to wild-type human full length MKK7 (M1 to R419 residues) expressed in mammalian expression system assessed as residual binding level at 100 nM by Kinomescan method relative to control
Please format your answer as a value with the unit trailing.

Task: Endpoint output: Activity of CCCS(=O)(=O)Nc1ccc(F)c(C(=O)c2n[nH]c3ncc(-c4ccc(C(N)=O)cc4)cc23)c1F . Value?
Output: 99%

Task: Entry to check: CCCS(=O)(=O)Nc1ccc(F)c(C(=O)c2n[nH]c3ncc(-c4ccc(OC)cc4Cl)cc23)c1F
Output: 100%

Task: Entry to check: CCCS(=O)(=O)Nc1ccc(F)c(C(=O)c2n[nH]c3ncc(-c4ccc(C(=O)O)cc4)cc23)c1F
Output: 27%

Task: Entry to check: CCCS(=O)(=O)Nc1ccc(F)c(C(=O)c2n[nH]c3ncc(-c4cccc(O)c4)cc23)c1F
Output: 100%

Task: Entry to check: CCCS(=O)(=O)Nc1ccc(F)c(C(=O)c2n[nH]c3ncc(-c4ccc(S(=O)(=O)NC)cc4)cc23)c1F
Output: 100%

Task: Entry to check: CCCS(=O)(=O)Nc1ccc(F)c(C(=O)c2n[nH]c3ncc(-c4cccc(N(C)C)c4)cc23)c1F
Output: 100%

Task: Entry to check: Nc1ccc(-c2cnc3[nH]nc(C(=O)c4c(F)ccc(NS(=O)(=O)Cc5ccccc5)c4F)c3c2)cc1
Output: 100%

Task: Entry to check: CCCS(=O)(=O)Nc1ccc(F)c(C(=O)c2n[nH]c3ncc(-c4ccc(Cl)c(Cl)c4)cc23)c1F
Output: 100%

Task: Entry to check: CCCS(=O)(=O)Nc1ccc(F)c(C(=O)c2n[nH]c3ncc(-c4cccc(F)c4)cc23)c1F
Output: 97%

Task: Entry to check: CCCS(=O)(=O)Nc1ccc(F)c(C(=O)c2n[nH]c3ncc(-c4ccc(C(C)(C)C)cc4)cc23)c1F
Output: 100%

Task: Entry to check: CCCS(=O)(=O)Nc1ccc(F)c(C(=O)c2n[nH]c3ncc(-c4ccc(S(=O)(=O)NC(C)=O)cc4)cc23)c1F
Output: 71%

Task: Entry to check: CCCS(=O)(=O)Nc1ccc(F)c(C(=O)c2n[nH]c3ncc(-c4ccc(F)cc4C)cc23)c1F
Output: 100%

Task: Entry to check: CCCS(=O)(=O)Nc1ccc(F)c(C(=O)c2n[nH]c3ncc(-c4ccccc4)cc23)c1F
Output: 100%

Task: Entry to check: CCCS(=O)(=O)Nc1ccc(F)c(C(=O)c2n[nH]c3ncc(-c4ccc(S(N)(=O)=O)cc4Cl)cc23)c1F
Output: 100%

Task: Entry to check: CCCS(=O)(=O)Nc1ccc(F)c(C(=O)c2n[nH]c3ncc(-c4cccc(C)c4)cc23)c1F
Output: 100%

Task: Entry to check: CCCS(=O)(=O)Nc1ccc(F)c(C(=O)c2n[nH]c3ncc(-c4ccccc4OC)cc23)c1F
Output: 100%

Task: Entry to check: CCCS(=O)(=O)Nc1ccc(F)c(C(=O)c2n[nH]c3ncc(-c4ccc([N+](=O)[O-])cc4)cc23)c1F
Output: 100%

* * *

biological target: Mitogen-activated protein kinase kinase kinase 20 (Homo sapiens, UniProt Q9NYL2); assay: Binding affinity to wild-type human partial length ZAK (M1 to L331 residues) expressed in bacterial expression system assessed as residual binding level at 100 nM by Kinomescan method relative to control
Sequence (Q9NYL2 2-800 limits assumed): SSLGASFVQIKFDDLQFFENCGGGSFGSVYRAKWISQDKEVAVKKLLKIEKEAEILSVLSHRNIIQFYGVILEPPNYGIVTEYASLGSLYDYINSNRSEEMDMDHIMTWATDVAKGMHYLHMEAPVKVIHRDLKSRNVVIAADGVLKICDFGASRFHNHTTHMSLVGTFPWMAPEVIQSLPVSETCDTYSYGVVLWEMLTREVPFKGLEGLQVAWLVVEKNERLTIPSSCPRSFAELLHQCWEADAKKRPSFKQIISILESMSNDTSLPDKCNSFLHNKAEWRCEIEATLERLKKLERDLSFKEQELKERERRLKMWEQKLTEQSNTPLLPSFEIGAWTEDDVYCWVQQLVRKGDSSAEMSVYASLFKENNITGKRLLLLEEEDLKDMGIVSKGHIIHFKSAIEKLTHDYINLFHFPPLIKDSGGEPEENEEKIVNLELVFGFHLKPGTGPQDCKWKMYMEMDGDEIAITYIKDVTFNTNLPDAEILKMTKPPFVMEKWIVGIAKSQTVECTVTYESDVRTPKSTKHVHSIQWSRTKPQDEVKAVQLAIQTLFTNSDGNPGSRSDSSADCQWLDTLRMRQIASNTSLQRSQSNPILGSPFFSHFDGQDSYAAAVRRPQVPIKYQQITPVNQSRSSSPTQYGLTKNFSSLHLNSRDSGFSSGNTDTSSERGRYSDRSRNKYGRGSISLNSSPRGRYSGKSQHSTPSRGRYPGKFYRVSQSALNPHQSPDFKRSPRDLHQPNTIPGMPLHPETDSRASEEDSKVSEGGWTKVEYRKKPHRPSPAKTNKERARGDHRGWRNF
assay.readout: Activity (%)
Supply the numeric figure in %, leaving out any unit text.

Task: Endpoint output: Activity of CCCS(=O)(=O)Nc1ccc(F)c(C(=O)c2n[nH]c3ncc(-c4ccccc4Cl)cc23)c1F . Value?
Output: 64

Task: Entry to check: CCCS(=O)(=O)Nc1ccc(F)c(C(=O)c2n[nH]c3ncc(-c4ccc(C(C)(C)C)cc4)cc23)c1F
Output: 77

Task: Entry to check: CCCCS(=O)(=O)Nc1ccc(F)c(C(=O)c2n[nH]c3ncc(-c4ccc(S(N)(=O)=O)cc4)cc23)c1F
Output: 100

Task: Entry to check: CCCS(=O)(=O)Nc1ccc(F)c(C(=O)c2n[nH]c3ncc(-c4ccc(S(N)(=O)=O)cc4C)cc23)c1F
Output: 94

* * *

Give Activity for every item shown.
biological target: Mitogen-activated protein kinase kinase kinase kinase 5 (Homo sapiens, UniProt Q9Y4K4); test: Binding affinity to wild-type human partial length MAP4K5 (M1 to P297 residues) expressed in bacterial expression system assessed as residual binding level at 100 nM by Kinomescan method relative to control
Sequence (Q9Y4K4 whole entry, looked up, the tested form may be a part): as the sequence (Q9Y4K4 whole entry, the tested form may be a part) above
Supply the numeric figure in %, leaving out any unit text.

Task: Write down the reported Activity of CCCS(=O)(=O)Nc1ccc(F)c(C(=O)c2n[nH]c3ncc(-c4ccc(S(N)(=O)=O)cc4)cc23)c1F , test system: Mitogen-activated protein kinase kinase kinase kinase 5 (Homo sapiens, UniProt Q9Y4K4).
Output: 100

Task: Entry to check: CCCS(=O)(=O)Nc1ccc(F)c(C(=O)c2n[nH]c3ncc(-c4ccc(-c5nnn[nH]5)cc4)cc23)c1F
Output: 81

Task: Entry to check: CCCS(=O)(=O)Nc1ccc(F)c(C(=O)c2n[nH]c3ncc(-c4ccccc4N)cc23)c1F
Output: 73

Task: Entry to check: CCCS(=O)(=O)Nc1ccc(F)c(C(=O)c2n[nH]c3ncc(-c4ccc(S(C)(=O)=O)cc4)cc23)c1F
Output: 14

Task: Entry to check: CCCS(=O)(=O)Nc1ccc(F)c(C(=O)c2n[nH]c3ncc(-c4ccc(N(C)C)cc4)cc23)c1F
Output: 31

Task: Entry to check: CCCS(=O)(=O)Nc1ccc(F)c(C(=O)c2n[nH]c3ncc(-c4cccc(N)c4)cc23)c1F
Output: 3.8

Task: Entry to check: CCCS(=O)(=O)Nc1ccc(F)c(C(=O)c2n[nH]c3ncc(-c4ccc(C(=O)O)cc4)cc23)c1F
Output: 75

Task: Entry to check: CCCS(=O)(=O)Nc1ccc(F)c(C(=O)c2n[nH]c3ncc(-c4ccc(S(=O)(=O)NCC)cc4)cc23)c1F
Output: 26

Task: Entry to check: CCCS(=O)(=O)Nc1ccc(F)c(C(=O)c2n[nH]c3ncc(-c4cccc(C)c4)cc23)c1F
Output: 18

Task: Entry to check: CCCS(=O)(=O)Nc1ccc(F)c(C(=O)c2n[nH]c3ncc(-c4ccccc4O)cc23)c1F
Output: 39

Task: Entry to check: CCCS(=O)(=O)Nc1ccc(F)c(C(=O)c2n[nH]c3ncc(-c4ccc(F)cc4C)cc23)c1F
Output: 55

Task: Entry to check: CCCS(=O)(=O)Nc1ccc(F)c(C(=O)c2n[nH]c3ncc(-c4ccccc4OC)cc23)c1F
Output: 34

Task: Entry to check: CCCS(=O)(=O)Nc1ccc(F)c(C(=O)c2n[nH]c3ncc(-c4cccc([N+](=O)[O-])c4)cc23)c1F
Output: 93

Task: Entry to check: CCCS(=O)(=O)Nc1ccc(F)c(C(=O)c2n[nH]c3ncc(-c4ccc(C)cc4)cc23)c1F
Output: 25

Task: Entry to check: CCCS(=O)(=O)Nc1ccc(F)c(C(=O)c2n[nH]c3ncc(-c4ccccc4)cc23)c1F
Output: 24

Task: Entry to check: CCCS(=O)(=O)Nc1ccc(F)c(C(=O)c2n[nH]c3ncc(-c4ccccc4F)cc23)c1F
Output: 59

Task: Entry to check: CCCS(=O)(=O)Nc1ccc(F)c(C(=O)c2n[nH]c3ncc(-c4ccc(C)c(C)c4)cc23)c1F
Output: 20

* * *

biological target: Mitogen-activated protein kinase 8 (Homo sapiens); assay: Binding affinity to wild-type human full length JNK1 (M1 to Q384 residues) expressed in mammalian expression system by Kinomescan method
Sequence (P45983 whole entry, the tested form may be a part): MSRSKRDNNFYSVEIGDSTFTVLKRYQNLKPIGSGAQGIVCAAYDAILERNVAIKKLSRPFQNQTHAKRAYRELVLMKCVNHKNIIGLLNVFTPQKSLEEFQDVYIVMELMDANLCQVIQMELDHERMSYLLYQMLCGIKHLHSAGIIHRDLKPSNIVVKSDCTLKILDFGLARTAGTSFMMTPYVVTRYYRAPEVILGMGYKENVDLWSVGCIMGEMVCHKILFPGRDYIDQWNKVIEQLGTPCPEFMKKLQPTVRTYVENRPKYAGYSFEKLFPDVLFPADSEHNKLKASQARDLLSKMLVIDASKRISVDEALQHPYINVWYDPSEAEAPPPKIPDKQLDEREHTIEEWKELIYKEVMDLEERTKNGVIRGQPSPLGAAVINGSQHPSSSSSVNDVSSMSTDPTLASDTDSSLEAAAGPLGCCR
assay.readout: Kd (µM)
Supply the numeric figure in µM, leaving out any unit text.

Task: Endpoint output: Kd of Nc1ccc(-c2cnc3[nH]nc(C(=O)c4c(F)ccc(NS(=O)(=O)Cc5ccccc5)c4F)c3c2)cc1 . Value?
Output: 0.14

* * *

Give Activity for every item shown.
Biological target: Dual specificity mitogen-activated protein kinase kinase 7 (Homo sapiens) (UniProt O14733)
Sequence (whole entry): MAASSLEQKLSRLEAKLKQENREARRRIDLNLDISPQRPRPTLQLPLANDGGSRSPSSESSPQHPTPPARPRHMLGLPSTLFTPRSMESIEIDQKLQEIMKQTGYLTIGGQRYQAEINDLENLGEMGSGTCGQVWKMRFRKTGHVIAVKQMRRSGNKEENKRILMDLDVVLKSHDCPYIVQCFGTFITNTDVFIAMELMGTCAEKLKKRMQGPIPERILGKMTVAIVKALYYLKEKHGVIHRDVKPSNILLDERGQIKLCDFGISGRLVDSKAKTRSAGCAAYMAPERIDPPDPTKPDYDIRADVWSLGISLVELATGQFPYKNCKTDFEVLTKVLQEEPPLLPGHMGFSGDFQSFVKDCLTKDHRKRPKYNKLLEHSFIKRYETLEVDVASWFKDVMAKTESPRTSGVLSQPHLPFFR
Experiment: Binding affinity to wild-type human full length MKK7 (M1 to R419 residues) expressed in mammalian expression system assessed as residual binding level at 100 nM by Kinomescan method relative to control
Please format your answer as a value with the unit trailing.

Task: Write down the reported Activity of CCCS(=O)(=O)Nc1ccc(F)c(C(=O)c2n[nH]c3ncc(-c4ccc(S(N)(=O)=O)cc4F)cc23)c1F , test system: Dual specificity mitogen-activated protein kinase kinase 7 (Homo sapiens) (UniProt O14733).
Output: 100%

Task: Entry to check: CCCS(=O)(=O)Nc1ccc(F)c(C(=O)c2n[nH]c3ncc(-c4cccc(OC)c4)cc23)c1F
Output: 100%

Task: Entry to check: CCCS(=O)(=O)Nc1ccc(F)c(C(=O)c2n[nH]c3ncc(-c4ccccc4O)cc23)c1F
Output: 100%

Task: Entry to check: CCCS(=O)(=O)Nc1ccc(F)c(C(=O)c2n[nH]c3ncc(-c4cccc(N)c4)cc23)c1F
Output: 86%

Task: Entry to check: CCCS(=O)(=O)Nc1ccc(F)c(C(=O)c2n[nH]c3ncc(-c4ccc(N(C)C)cc4)cc23)c1F
Output: 100%

Task: Entry to check: CCCS(=O)(=O)Nc1ccc(F)c(C(=O)c2n[nH]c3ncc(-c4ccc(OC)cc4)cc23)c1F
Output: 100%

Task: Entry to check: CCCS(=O)(=O)Nc1ccc(F)c(C(=O)c2n[nH]c3ncc(-c4ccccc4N)cc23)c1F
Output: 95%

Task: Entry to check: CCCS(=O)(=O)Nc1ccc(F)c(C(=O)c2n[nH]c3ncc(-c4ccc(C(C)C)cc4)cc23)c1F
Output: 98%

Task: Entry to check: CCCS(=O)(=O)Nc1ccc(F)c(C(=O)c2n[nH]c3ncc(-c4ccc(S(=O)(=O)NCC)cc4)cc23)c1F
Output: 100%

Task: Entry to check: CCCS(=O)(=O)Nc1ccc(F)c(C(=O)c2n[nH]c3ncc(-c4cccc(Cl)c4)cc23)c1F
Output: 100%

Task: Entry to check: CCCS(=O)(=O)Nc1ccc(F)c(C(=O)c2n[nH]c3ncc(-c4ccc(-c5nnn[nH]5)cc4)cc23)c1F
Output: 64%

Task: Entry to check: CCCS(=O)(=O)Nc1ccc(F)c(C(=O)c2n[nH]c3ncc(-c4ccc(S(N)(=O)=O)cc4C)cc23)c1F
Output: 100%

Task: Entry to check: CCCS(=O)(=O)Nc1ccc(F)c(C(=O)c2n[nH]c3ncc(-c4ccc(C)cc4)cc23)c1F
Output: 100%

Task: Entry to check: CCCS(=O)(=O)Nc1ccc(F)c(C(=O)c2n[nH]c3ncc(-c4ccc(C)c(C)c4)cc23)c1F
Output: 100%

Task: Entry to check: CS(=O)(=O)Nc1ccc(F)c(C(=O)c2n[nH]c3ncc(-c4ccc(S(N)(=O)=O)cc4)cc23)c1F
Output: 99%

Task: Entry to check: CCCS(=O)(=O)Nc1ccc(F)c(C(=O)c2n[nH]c3ncc(-c4cccc(C(F)(F)F)c4)cc23)c1F
Output: 100%

Task: Entry to check: CCCS(=O)(=O)Nc1ccc(F)c(C(=O)c2n[nH]c3ncc(-c4ccc(NS(C)(=O)=O)cc4)cc23)c1F
Output: 100%

Task: Entry to check: CCCCS(=O)(=O)Nc1ccc(F)c(C(=O)c2n[nH]c3ncc(-c4ccc(S(N)(=O)=O)cc4)cc23)c1F
Output: 100%

Task: Entry to check: CCCS(=O)(=O)Nc1ccc(F)c(C(=O)c2n[nH]c3ncc(-c4cc(Cl)cc(Cl)c4)cc23)c1F
Output: 100%

Task: Entry to check: CCCS(=O)(=O)Nc1ccc(F)c(C(=O)c2n[nH]c3ncc(-c4ccccc4Cl)cc23)c1F
Output: 100%

Task: Entry to check: CCCS(=O)(=O)Nc1ccc(F)c(C(=O)c2n[nH]c3ncc(-c4ccc(F)cc4)cc23)c1F
Output: 100%

Task: Entry to check: CCCS(=O)(=O)Nc1ccc(F)c(C(=O)c2n[nH]c3ncc(-c4ccc(Cl)cc4Cl)cc23)c1F
Output: 96%

Task: Entry to check: CCCS(=O)(=O)Nc1ccc(F)c(C(=O)c2n[nH]c3ncc(-c4ccc(S(N)(=O)=O)cc4)cc23)c1F
Output: 98%

Task: Entry to check: CCCS(=O)(=O)Nc1ccc(F)c(C(=O)c2n[nH]c3ncc(-c4ccc(O)cc4)cc23)c1F
Output: 87%

Task: Entry to check: CCCS(=O)(=O)Nc1ccc(F)c(C(=O)c2n[nH]c3ncc(-c4cccc([N+](=O)[O-])c4)cc23)c1F
Output: 95%

Task: Entry to check: CCCS(=O)(=O)Nc1ccc(F)c(C(=O)c2n[nH]c3ncc(-c4ccccc4F)cc23)c1F
Output: 83%

Task: Entry to check: CCCS(=O)(=O)Nc1ccc(F)c(C(=O)c2n[nH]c3ncc(-c4ccc(N)cc4)cc23)c1F
Output: 93%

Task: Entry to check: CCCS(=O)(=O)Nc1ccc(F)c(C(=O)c2n[nH]c3ncc(-c4ccc(C(F)(F)F)cc4)cc23)c1F
Output: 100%

Task: Entry to check: CCCS(=O)(=O)Nc1ccc(F)c(C(=O)c2n[nH]c3ncc(-c4ccc(Cl)c(C(F)(F)F)c4)cc23)c1F
Output: 100%

Task: Entry to check: CCCS(=O)(=O)Nc1ccc(F)c(C(=O)c2n[nH]c3ncc(-c4ccc(S(C)(=O)=O)cc4)cc23)c1F
Output: 100%

Task: Entry to check: CCCS(=O)(=O)Nc1ccc(F)c(C(=O)c2n[nH]c3ncc(-c4ccccc4C)cc23)c1F
Output: 100%
